# TEST SYSTEM: human CD73 (Homo sapiens, UniProt P21589)
# Sequence (P21589 27-549): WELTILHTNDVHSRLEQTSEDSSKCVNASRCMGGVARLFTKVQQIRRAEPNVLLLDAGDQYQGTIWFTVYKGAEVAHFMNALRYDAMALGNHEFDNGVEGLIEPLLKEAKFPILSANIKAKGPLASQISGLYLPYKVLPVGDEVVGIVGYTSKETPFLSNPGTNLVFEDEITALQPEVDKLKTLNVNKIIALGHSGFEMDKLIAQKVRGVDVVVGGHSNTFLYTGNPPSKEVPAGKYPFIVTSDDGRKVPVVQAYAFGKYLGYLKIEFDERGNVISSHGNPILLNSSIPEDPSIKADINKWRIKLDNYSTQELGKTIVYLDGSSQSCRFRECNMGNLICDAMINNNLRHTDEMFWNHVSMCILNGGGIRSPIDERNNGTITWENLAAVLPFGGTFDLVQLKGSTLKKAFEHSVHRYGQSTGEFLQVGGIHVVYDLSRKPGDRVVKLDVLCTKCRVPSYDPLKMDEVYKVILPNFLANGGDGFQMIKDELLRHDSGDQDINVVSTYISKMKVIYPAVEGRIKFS
# METHOD DESCRIPTION: Inhibitor activity against CD73 in cell based assay (CD73 expressing CHO-K1 cells)
# CONDITION: CHO-K1 cells expressing human CD73, 150 μM AMP, 4 hours of incubation; read-out: CHO-K1 CELL VARIANT: CD73 IC50
pIC50: −log10 of the molar value.
MEASURED ATTRIBUTE: pIC50

In [3]: df
Out[3]:
                                   compound  experimental_value
0  C[C@H]1CC[C@H](NC(=O)O[C@@H]2CCN(c3cn[nH]c(=O)c3Cl)C2)CC1        5.00 to 9.00
1  Cc1c(N2CC[C@@H](NC(=O)NC3CCCC3)C2)cn[nH]c1=O        4.00 to 5.00
2  O=C(NC1CCN(C(=O)Nc2ccc(C(F)(F)F)cc2)CC1)O[C@@H]1CCN(c2cn[nH]c(=O)c2Cl)C1        5.00 to 9.00

## Task Find pIC50 (human CD73 (Homo sapiens, UniProt P21589)) for the entry CC1(NC(=O)O[C@@H]2CCN(c3cn[nH]c(=O)c3Cl)C2)CCOCC1
## Result 5.00 to 9.00

## Task Find pIC50 (human CD73 (Homo sapiens, UniProt P21589)) for the entry O=C(Nc1ccc(C(=O)O)cc1)N[C@H]1CC[C@H](NC(=O)O[C@@H]2CCN(c3cn[nH]c(=O)c3Cl)C2)CC1
## Result 5.00 to 9.00

## Task Find pIC50 (human CD73 (Homo sapiens, UniProt P21589)) for the entry O=C(Nc1cnn2cccnc12)O[C@@H]1CCN(c2cn[nH]c(=O)c2Cl)C1
## Result 4.00 to 5.00

====

# TEST SYSTEM: UniProt P21589
# METHOD DESCRIPTION: Inhibitor activity against CD73 in cell based assay (CD73 expressing CHO-K1 cells)
# CONDITION: CHO-K1 cells expressing human CD73, 150 μM AMP, 4 hours of incubation; read-out: CHO-K1 CELL VARIANT: CD73 IC50
pIC50: −log10 of the molar value.
MEASURED ATTRIBUTE: pIC50

>>> df
                                   molecule  experimental_value
0  O=C(N[C@H]1CCCC(F)(F)C1)O[C@@H]1CCN(c2cn[nH]c(=O)c2Cl)C1 [P-0511]        5.00 to 9.00
1  Cc1noc(C)c1CC(=O)N1CCC(NC(=O)O[C@@H]2CCN(c3cn[nH]c(=O)c3Cl)C2)CC1 [P-0466]        5.00 to 9.00
2  O=C(N[C@H]1CC[C@@H](NC2CC3CCC2C3)CC1)O[C@@H]1CCN(c2cn[nH]c(=O)c2Cl)C1 (some centres unmarked) [P-0488]        5.00 to 9.00

Consider now this further molecule.
## Task For the molecule shown here, Cc1occc1C(=O)N1CCC(NC(=O)O[C@@H]2CCN(c3cn[nH]c(=O)c3Cl)C2)CC1 [P-0502] , give the reported pIC50.
## Result 5.00 to 9.00

====

# TEST SYSTEM: human CD73 (Homo sapiens, UniProt P21589)
# METHOD DESCRIPTION: Inhibitor activity against CD73 in cell based assay (CD73 expressing CHO-K1 cells)
# CONDITION: CHO-K1 cells expressing human CD73, 150 μM AMP, 4 hours of incubation; read-out: CHO-K1 CELL VARIANT: CD73 IC50
IC50 listing for selected compounds.

As a guide, the following entries are already answered.
>>> print(df.to_string())
                                smiles_repr  measured_attribute  experimental_value
0  O=C(NC1CCN(C(=O)Cc2ccccc2Br)CC1)O[C@@H]1CCN(c2cn[nH]c(=O)c2Cl)C1                IC50      0.001 to 10 µM
1  N#CCS(=O)(=O)N[C@H]1CC[C@H](NC(=O)O[C@@H]2CCN(c3cn[nH]c(=O)c3Cl)C2)CC1                IC50      0.001 to 10 µM
2  O=C(NC1CCN(C(=O)Nc2cc(F)ccc2F)CC1)O[C@@H]1CCN(c2cn[nH]c(=O)c2Cl)C1                IC50      0.001 to 10 µM

## Task For the compound shown here, CC(=O)NCC(=O)N1CCC(NC(=O)O[C@@H]2CCN(c3cn[nH]c(=O)c3Cl)C2)CC1 , give the reported IC50.
## Result 0.001 to 10 µM

## Task For the compound shown here, Cc1cccc(C(=O)N[C@H]2CC[C@H](NC(=O)O[C@@H]3CCN(c4cn[nH]c(=O)c4Cl)C3)CC2)c1 , give the reported IC50.
## Result 0.001 to 10 µM

## Task For the compound shown here, O=C(NC1CCN(C(=O)Nc2ccc(F)cc2)CC1)O[C@@H]1CCN(c2cn[nH]c(=O)c2Cl)C1 , give the reported IC50.
## Result 0.001 to 10 µM

## Task For the compound shown here, O=C(N[C@@H]1CCN(c2cn[nH]c(=O)c2Cl)C1)OC1CCCC1 , give the reported IC50.
## Result 10 to 100 µM

## Task For the compound shown here, C#CC1(NC(=O)O[C@@H]2CCN(c3cn[nH]c(=O)c3Cl)C2)CCCCC1 , give the reported IC50.
## Result 0.001 to 10 µM

Ref: patent US12509444B2
